ASSAYED_SYSTEM: Fatty-acid amide hydrolase 1 (Rattus norvegicus) (UniProt P97612)
Sequence (P97612 whole entry): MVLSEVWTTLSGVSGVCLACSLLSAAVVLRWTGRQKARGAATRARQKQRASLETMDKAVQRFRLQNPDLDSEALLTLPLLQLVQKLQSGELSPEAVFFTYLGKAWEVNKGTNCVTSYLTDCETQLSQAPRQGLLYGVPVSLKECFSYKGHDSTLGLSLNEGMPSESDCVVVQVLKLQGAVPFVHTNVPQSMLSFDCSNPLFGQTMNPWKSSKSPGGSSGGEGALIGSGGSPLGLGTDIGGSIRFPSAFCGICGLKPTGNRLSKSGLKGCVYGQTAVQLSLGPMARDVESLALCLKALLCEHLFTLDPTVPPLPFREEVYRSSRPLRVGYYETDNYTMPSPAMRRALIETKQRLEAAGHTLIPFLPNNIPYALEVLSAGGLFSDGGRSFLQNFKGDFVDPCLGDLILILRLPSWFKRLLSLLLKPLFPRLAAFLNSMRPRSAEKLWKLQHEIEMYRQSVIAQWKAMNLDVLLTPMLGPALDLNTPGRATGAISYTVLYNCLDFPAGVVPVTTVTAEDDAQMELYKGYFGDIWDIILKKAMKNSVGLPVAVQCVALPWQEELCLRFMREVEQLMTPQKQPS
METHOD_SUMMARY: Inhibition of rat brain FAAH at 0.3 to 100 uM using [3H]AEA as substrate after 10 mins by liquid scintillation counting analysis relative to control
Each entry below carries its reported Imax.

COMPOUND	ASSAYED_SYSTEM	Imax, %
CC(C(=O)N1CCN(c2ccc(Cl)cc2)CC1)c1ccc(Nc2ccnc(C(F)(F)F)c2)cc1 (stereo unspecified)	Fatty-acid amide hydrolase 1 (Rattus norvegicus) (UniProt P97612)	65
CC(C(=O)Nc1cccnc1)c1ccc(Nc2ccnc(C(F)(F)F)c2)cc1 (stereo unspecified)	Fatty-acid amide hydrolase 1 (Rattus norvegicus) (UniProt P97612)	86
CC(C(=O)Nc1ccccn1)c1ccc(Nc2ccnc(C(F)(F)F)c2)cc1 (stereo unspecified)	Fatty-acid amide hydrolase 1 (Rattus norvegicus) (UniProt P97612)	93
CC(C(=O)Nc1ncccc1Br)c1ccc(Nc2ccnc(C(F)(F)F)c2)cc1 (stereo unspecified)	Fatty-acid amide hydrolase 1 (Rattus norvegicus) (UniProt P97612)	100
Cc1ccnc(NC(=O)C(C)c2ccc(Nc3ccnc(C(F)(F)F)c3)cc2)c1 (stereo unspecified)	Fatty-acid amide hydrolase 1 (Rattus norvegicus) (UniProt P97612)	100
CC(C(=O)NCc1ccccn1)c1ccc(Nc2ccnc(C(F)(F)F)c2)cc1 (stereo unspecified)	Fatty-acid amide hydrolase 1 (Rattus norvegicus) (UniProt P97612)	100

Source listed as ChEMBL document CHEMBL4138113.
